Target: human proteinase 3 (Homo sapiens, UniProt P24158)
Sequence (P24158 28-248): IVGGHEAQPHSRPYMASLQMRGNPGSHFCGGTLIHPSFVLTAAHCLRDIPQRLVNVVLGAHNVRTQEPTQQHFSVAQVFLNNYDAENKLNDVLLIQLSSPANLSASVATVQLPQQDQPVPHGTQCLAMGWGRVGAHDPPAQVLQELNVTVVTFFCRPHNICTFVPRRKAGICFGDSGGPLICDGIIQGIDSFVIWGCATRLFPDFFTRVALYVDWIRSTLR
Where a SMILES comes first, the peptide text is derived from it. [ ]: non-standard residue; d: D form. Gly(octyl) = CCCCCCCC[C@H](N)C(=O)O; hTyr = N[C@@H](CCc1ccc(O)cc1)C(=O)O; β3hP = O=C(O)C[C@@H]1CCCN1
assay_metric: pIC50
Note on pIC50: it is the negative log10 of concentration, concentration in mol/L.

CCCCCCCC[C@@H]1NC(=O)C[C@@H]2CCCN2C(=O)[C@H]2CCCN2C(=O)[C@H]([C@@H](C)O)NC(=O)[C@H](CCCCN)NC(=O)[C@H](CCC(N)=O)NC(=O)[C@@H]2CCCN2C(=O)[C@@H]2CCCN2C(=O)[C@H]([C@@H](C)CC)NC(=O)[C@H](CO)NC(=O)[C@H](C)NC(=O)[C@H]([C@@H](C)O)NC(=O)[C@H](CCC(=O)O)NC1=O [Example 39] (cyclo([Gly(octyl)]ETASIPPQKT[dP][β3hP])) ... 4.15

response.value for CC[C@H](C)[C@@H]1NC(=O)[C@H](CO)NC(=O)[C@H](C)NC(=O)[C@H]([C@@H](C)O)NC(=O)[C@H](CCc2ccc(O)cc2)NC(=O)[C@H](CCCNC(=N)N)NC(=O)[C@H](CCC(=O)O)NC(=O)[C@H]2CCCN2C(=O)[C@H]([C@@H](C)O)NC(=O)[C@H](CCCCN)NC(=O)[C@H](CCC(N)=O)NC(=O)[C@@H]2CCCN2C(=O)[C@@H]2CCCN2C1=O [Example 49] (cyclo(R[hTyr]TASIPPQKT[dP]E)) (field: pIC50) = 5.02

Data origin, for the record: patent US10273267B2
